# Target: Class D beta-lactamase, A. baumannii NCTC 13301 (OXA 23) (Acinetobacter baumannii, UniProt Q9L4P2)
# Construct: preincubated mixture of crude enzyme and the agents; endogenous in cells; host or cells: A. baumannii NCTC 13301
# Sequence (Q9L4P2 18-273): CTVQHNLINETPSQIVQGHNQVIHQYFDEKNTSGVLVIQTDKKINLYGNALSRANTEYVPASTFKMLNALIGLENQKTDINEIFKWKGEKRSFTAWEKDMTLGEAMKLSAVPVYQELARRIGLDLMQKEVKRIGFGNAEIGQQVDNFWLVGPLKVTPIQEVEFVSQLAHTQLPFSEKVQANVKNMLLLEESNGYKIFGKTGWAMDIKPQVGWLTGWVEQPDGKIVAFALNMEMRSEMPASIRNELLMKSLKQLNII
# Assay Summary: Beta-lactamase enzyme inhibition (nitrocefin, crude enzyme)
# Type: biochemical
Experimental Endpoint: IC50 (nM)
Answers are plain numbers, in nM.

O=C(Cc1ccc(OC(=O)NC2CCCCC2)cc1)NNC(=O)[C@@H]1CC[C@@H]2CN1C(=O)N2OS(=O)(=O)O
243

Now for the molecule whose IC50 we want.
Ask: Name the reported IC50 value associated with the molecule CC(C)[C@H](NC(=O)Oc1ccc(CC(=O)NNC(=O)[C@@H]2CC[C@@H]3CN2C(=O)N3OS(=O)(=O)O)cc1)C(=O)OC(C)(C)C
Result: 2850

====

# Target: Class D beta-lactamase, A. baumannii NCTC 13301 (OXA 23) (Acinetobacter baumannii)
# Construct: preincubated mixture of crude enzyme and the agents; endogenous in cells; host or cells: A. baumannii NCTC 13301
# Assay Summary: Beta-lactamase enzyme inhibition (nitrocefin, crude enzyme)
# Assay type: biochemical
# Condition Context: Class D A. baumannii NCTC 13301 (OXA 23); read-out: Beta-lactamase enzyme inhibition IC50
Experimental Endpoint: IC50 (µM)
Answers are plain numbers, in µM.

O=C(Cc1ccccc1O[C@H]1CCNC1)NNC(=O)[C@@H]1CC[C@@H]2CN1C(=O)N2OS(=O)(=O)O
4.12
CN(C)c1ccc(CC(=O)NNC(=O)[C@@H]2CC[C@@H]3CN2C(=O)N3OS(=O)(=O)O)cc1
0.629

Provide reported IC50 for each item, in the same order as listed.
1. NCCCOc1ccccc1CC(=O)NNC(=O)[C@@H]1CC[C@@H]2CN1C(=O)N2OS(=O)(=O)O
2. NCc1ccc(CC(=O)NNC(=O)[C@@H]2CC[C@@H]3CN2C(=O)N3OS(=O)(=O)O)cc1
3. O=C(Cc1ccc(O)cc1)NNC(=O)[C@@H]1CC[C@@H]2CN1C(=O)N2OS(=O)(=O)[O-].[Na+]
4. C[C@H](N)COc1ccccc1CC(=O)NNC(=O)[C@@H]1CC[C@@H]2CN1C(=O)N2OS(=O)(=O)O
5. CC(C)[C@H](N)COc1ccccc1CC(=O)NNC(=O)[C@@H]1CC[C@@H]2CN1C(=O)N2OS(=O)(=O)O
6. O=C(Cc1ccc(O)cc1F)NNC(=O)[C@@H]1CC[C@@H]2CN1C(=O)N2OS(=O)(=O)O
7. O=C(Cc1ccccc1)NNC(=O)[C@@H]1CC[C@@H]2CN1C(=O)N2OS(=O)(=O)O

Result:
1. 3.81
2. 0.539
3. 0.315
4. 1.57
5. 1.17
6. 0.146
7. 0.416

Provide reported IC50 for each item, in the same order as listed.
1. Nc1ccc(CC(=O)NNC(=O)[C@@H]2CC[C@@H]3CN2C(=O)N3OS(=O)(=O)O)cc1
2. O=C(Cc1ccc(Cl)cc1)NNC(=O)[C@@H]1CC[C@@H]2CN1C(=O)N2OS(=O)(=O)O
3. O=C(Cc1ccccn1)NNC(=O)[C@@H]1CC[C@@H]2CN1C(=O)N2OS(=O)(=O)O
4. O=C(Cc1ccccc1O)NNC(=O)[C@@H]1CC[C@@H]2CN1C(=O)N2OS(=O)(=O)O
5. CC(OC(=O)NCCOc1ccccc1CC(=O)NNC(=O)[C@@H]1CC[C@@H]2CN1C(=O)N2OS(=O)(=O)[O-])OC(=O)C(C)C.[Na+] (some centres unmarked)
6. CNCCOc1cccc(CC(=O)NNC(=O)[C@@H]2CC[C@@H]3CN2C(=O)N3OS(=O)(=O)O)c1
7. Nc1ccccc1CC(=O)NNC(=O)[C@@H]1CC[C@@H]2CN1C(=O)N2OS(=O)(=O)O

Result:
1: 0.408; 2: 0.173; 3: 0.466; 4: 0.677; 5: 0.537; 6: 0.938; 7: 4.51

Provide reported IC50 for each item, in the same order as listed.
1. C[C@@H](N)COc1ccccc1CC(=O)NNC(=O)[C@@H]1CC[C@@H]2CN1C(=O)N2OS(=O)(=O)O
2. NCCOc1ccccc1CC(=O)NNC(=O)[C@@H]1CC[C@@H]2CN1C(=O)N2OS(=O)(=O)O
3. O=C(Cc1cccc(OC[C@@H]2CCNC2)c1)NNC(=O)[C@@H]1CC[C@@H]2CN1C(=O)N2OS(=O)(=O)O
4. O=C(Cc1ccc(O[C@H]2CCNC2)cc1F)NNC(=O)[C@@H]1CC[C@@H]2CN1C(=O)N2OS(=O)(=O)O
5. N#Cc1ccc(CC(=O)NNC(=O)[C@@H]2CC[C@@H]3CN2C(=O)N3OS(=O)(=O)O)cc1
6. NCCOc1cccc(CC(=O)NNC(=O)[C@@H]2CC[C@@H]3CN2C(=O)N3OS(=O)(=O)O)c1
7. O=C(Cc1ccc(OC(=O)[C@@H]2CCCN2)cc1)NNC(=O)[C@@H]1CC[C@@H]2CN1C(=O)N2OS(=O)(=O)O

Result:
[2.02, 3.77, 1.28, 0.842, 0.805, 1.77, 0.329]

Provide reported IC50 for each item, in the same order as listed.
1. C[C@H](N)C(=O)Oc1ccc(CC(=O)NNC(=O)[C@@H]2CC[C@@H]3CN2C(=O)N3OS(=O)(=O)O)cc1
2. O=C(Cc1ccccc1OC[C@@H]1CCCN1)NNC(=O)[C@@H]1CC[C@@H]2CN1C(=O)N2OS(=O)(=O)O
3. C[C@H](N)COc1ccc(CC(=O)NNC(=O)[C@@H]2CC[C@@H]3CN2C(=O)N3OS(=O)(=O)O)c(F)c1
4. NCCOc1ccc(CC(=O)NNC(=O)[C@@H]2CC[C@@H]3CN2C(=O)N3OS(=O)(=O)O)cc1
5. C[C@@H](N)COc1ccc(CC(=O)NNC(=O)[C@@H]2CC[C@@H]3CN2C(=O)N3OS(=O)(=O)O)cc1

Result:
1. 0.24
2. 1.76
3. 0.561
4. 0.451
5. 0.542

Ask: Name the reported IC50 value associated with the molecule O=C(CCc1ccccc1)NNC(=O)[C@@H]1CC[C@@H]2CN1C(=O)N2OS(=O)(=O)O
Result: 0.6

====

Provide the recorded MIC for the entries that follow.
# Tested on: K. pneumoniae H521 (KPC, SHV, TEM)
# Assay Summary: Antibacterial activity, MIC by agar dilution (CLSI)
# Type: cell-based
# Condition Context: Klebsiella pneumoniae, Table 2; K. pneumoniae H521 (KPC, SHV, TEM); read-out: MIC
A complete answer gives the number and then names the unit.

Example entries and their recorded answers appear below.
NCCCOc1cccc(CC(=O)NNC(=O)[C@@H]2CC[C@@H]3CN2C(=O)N3OS(=O)(=O)O)c1 [Example 35]
1 mg/L
C[C@H](N)COc1ccc(CC(=O)NNC(=O)[C@@H]2CC[C@@H]3CN2C(=O)N3OS(=O)(=O)O)c(F)c1 [Example 44]
2 mg/L
O=C(Cc1ccc(O)cc1)NNC(=O)[C@@H]1CC[C@@H]2CN1C(=O)N2OS(=O)(=O)[O-].[Na+] [Example 1]
1 mg/L

Provide reported MIC for each item, in the same order as listed.
1. O=C(Cc1ccccc1OC[C@H]1CCCN1)NNC(=O)[C@@H]1CC[C@@H]2CN1C(=O)N2OS(=O)(=O)O [Example 57]
2. NCc1ccc(CC(=O)NNC(=O)[C@@H]2CC[C@@H]3CN2C(=O)N3OS(=O)(=O)O)cc1 [Example 12]
3. C[C@@H](N)COc1ccc(CC(=O)NNC(=O)[C@@H]2CC[C@@H]3CN2C(=O)N3OS(=O)(=O)O)cc1 [Example 49]
4. O=C(Cc1ccc(OC[C@@H]2CCCN2)cc1)NNC(=O)[C@@H]1CC[C@@H]2CN1C(=O)N2OS(=O)(=O)O [Example 61]

Result:
["4 mg/L", "0.25 mg/L", "1 mg/L", "2 mg/L"]

====

Provide the recorded pIC50 for the entries that follow.
# Target: Class A beta-lactamase, K. pneumoniae ATCC 700603 (SHV 18) (Klebsiella pneumoniae, UniProt P0AD64, E235K/G234A/R39S)
# Construct: preincubated mixture of crude enzyme and the agents; endogenous in cells; host or cells: K. pneumoniae ATCC 700603
# Sequence (P0AD64 22-286 R39S/G234A/E235K): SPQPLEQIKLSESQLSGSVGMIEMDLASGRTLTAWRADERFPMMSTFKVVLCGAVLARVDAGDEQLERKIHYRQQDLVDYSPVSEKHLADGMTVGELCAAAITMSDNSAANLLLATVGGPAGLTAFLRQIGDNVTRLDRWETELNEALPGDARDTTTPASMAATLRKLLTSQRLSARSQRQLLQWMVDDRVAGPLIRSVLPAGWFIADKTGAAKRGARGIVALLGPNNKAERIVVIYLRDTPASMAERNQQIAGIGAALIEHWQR
# Assay Summary: biochemical
One number for each entry, as −log10 of the molar value.

Provide reported pIC50 for each item, in the same order as listed.
1. NCc1ccc(CC(=O)NNC(=O)[C@@H]2CC[C@@H]3CN2C(=O)N3OS(=O)(=O)O)cc1
2. CC(C)[C@H](N)COc1ccc(CC(=O)NNC(=O)[C@@H]2CC[C@@H]3CN2C(=O)N3OS(=O)(=O)O)cc1
3. NCCCOc1cccc(CC(=O)NNC(=O)[C@@H]2CC[C@@H]3CN2C(=O)N3OS(=O)(=O)O)c1
4. CC(C)[C@H](N)C(=O)Oc1ccc(CC(=O)NNC(=O)[C@@H]2CC[C@@H]3CN2C(=O)N3OS(=O)(=O)O)cc1

Result:
1. 6.84
2. 7.43
3. 6.15
4. 8.70
